# IL8 Expression Levels annotations
Tested on: iPS(Foreskin)-4-derived d8 HPTC-like cells
Test context: 1 μg/ml, overnight (16 h), qPCR, normalized to vehicle control (=1), mean +/- s.d., n=3
Write the value as a bare number.

# annotated cases, reported IL8 Expression Levels shown
INSERT INTO results (compound, recorded_measurement) VALUES
  ('[Cl][Cu][Cl] [Copper (II) chloride]', 7.2),
  ('COc1cccc2c1cc([N+](=O)[O-])c1c(C(=O)O)cc3c(c12)OCO3 [Aristolochic acid]', 5.0);

## Task Tell us which IL8 Expression Levels value is on record for CN[C@H](CC(C)C)C(=O)N[C@H]1C(=O)N[C@@H](CC(N)=O)C(=O)N[C@H]2C(=O)N[C@H]3C(=O)N[C@H](C(=O)N[C@H](C(=O)O)c4cc(O)cc(O)c4-c4cc3ccc4O)[C@H](O)c3ccc(c(Cl)c3)Oc3cc2cc(c3O[C@@H]2O[C@H](CO)[C@@H](O)[C@H](O)[C@H]2O[C@H]2C[C@](C)(N)[C@H](O)[C@H](C)O2)Oc2ccc(cc2Cl)[C@H]1O [Vancomycin]
## Result 0.7
